B1: 5KPH (parent)
chain: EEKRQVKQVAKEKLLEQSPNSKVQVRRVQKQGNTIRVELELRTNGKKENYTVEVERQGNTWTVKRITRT

Variants of: B1
Experiment: folding stability dG (cDNA display proteolysis); higher = more stable
Conditions: PBS, room temperature
Kindly return YES if reported folding stability dG is no lower than 4 kcal/mol; return NO if it is lower.

Ask: Dear colleague, could you confirm whether T67D has folding stability dG at or above 4 kcal/mol?
Result: NO

Ask: Dear colleague, could you confirm whether T69F has folding stability dG at or above 4 kcal/mol?
Result: NO

Ask: Dear colleague, could you confirm whether K13P has folding stability dG at or above 4 kcal/mol?
Result: NO

Ask: Dear colleague, could you confirm whether K11G has folding stability dG at or above 4 kcal/mol?
Result: NO

Ask: Dear colleague, could you confirm whether S18P has folding stability dG at or above 4 kcal/mol?
Result: NO

Ask: Dear colleague, could you confirm whether L39A has folding stability dG at or above 4 kcal/mol?
Result: NO

Ask: Dear colleague, could you confirm whether L15A has folding stability dG at or above 4 kcal/mol?
Result: NO

Ask: Dear colleague, could you confirm whether V25F has folding stability dG at or above 4 kcal/mol?
Result: NO

Ask: Dear colleague, could you confirm whether V37H has folding stability dG at or above 4 kcal/mol?
Result: NO

Ask: Dear colleague, could you confirm whether Q5F has folding stability dG at or above 4 kcal/mol?
Result: NO

Ask: Dear colleague, could you confirm whether T34R has folding stability dG at or above 4 kcal/mol?
Result: NO

Ask: Dear colleague, could you confirm whether R42F has folding stability dG at or above 4 kcal/mol?
Result: YES

Ask: Dear colleague, could you confirm whether Y50C has folding stability dG at or above 4 kcal/mol?
Result: NO

Ask: Dear colleague, could you confirm whether W61Q has folding stability dG at or above 4 kcal/mol?
Result: NO

Ask: Dear colleague, could you confirm whether T62G has folding stability dG at or above 4 kcal/mol?
Result: NO

Ask: Dear colleague, could you confirm whether L41I has folding stability dG at or above 4 kcal/mol?
Result: NO

Ask: Dear colleague, could you confirm whether K7S has folding stability dG at or above 4 kcal/mol?
Result: YES

Ask: Dear colleague, could you confirm whether V28E has folding stability dG at or above 4 kcal/mol?
Result: NO

Ask: Dear colleague, could you confirm whether T62I has folding stability dG at or above 4 kcal/mol?
Result: YES

Ask: Dear colleague, could you confirm whether T43S has folding stability dG at or above 4 kcal/mol?
Result: NO

Ask: Dear colleague, could you confirm whether N49C has folding stability dG at or above 4 kcal/mol?
Result: NO

Ask: Dear colleague, could you confirm whether L14A has folding stability dG at or above 4 kcal/mol?
Result: NO

Ask: Dear colleague, could you confirm whether E12K has folding stability dG at or above 4 kcal/mol?
Result: NO

Ask: Dear colleague, could you confirm whether V23H has folding stability dG at or above 4 kcal/mol?
Result: NO

Ask: Dear colleague, could you confirm whether L15Q has folding stability dG at or above 4 kcal/mol?
Result: NO

Ask: Dear colleague, could you confirm whether L14K has folding stability dG at or above 4 kcal/mol?
Result: NO

Ask: Dear colleague, could you confirm whether R65N has folding stability dG at or above 4 kcal/mol?
Result: NO

Ask: Dear colleague, could you confirm whether E2S has folding stability dG at or above 4 kcal/mol?
Result: NO

Ask: Dear colleague, could you confirm whether V37Q has folding stability dG at or above 4 kcal/mol?
Result: NO

Ask: Dear colleague, could you confirm whether L39K has folding stability dG at or above 4 kcal/mol?
Result: NO

Ask: Dear colleague, could you confirm whether K47Q has folding stability dG at or above 4 kcal/mol?
Result: NO

Ask: Dear colleague, could you confirm whether R26L has folding stability dG at or above 4 kcal/mol?
Result: YES

Ask: Dear colleague, could you confirm whether R26Q has folding stability dG at or above 4 kcal/mol?
Result: NO

Ask: Dear colleague, could you confirm whether N44S has folding stability dG at or above 4 kcal/mol?
Result: NO

Ask: Dear colleague, could you confirm whether K30A has folding stability dG at or above 4 kcal/mol?
Result: YES

Ask: Dear colleague, could you confirm whether L14D has folding stability dG at or above 4 kcal/mol?
Result: NO

Ask: Dear colleague, could you confirm whether V23Y has folding stability dG at or above 4 kcal/mol?
Result: NO

Ask: Dear colleague, could you confirm whether N20Y has folding stability dG at or above 4 kcal/mol?
Result: NO

Ask: Dear colleague, could you confirm whether Q17C has folding stability dG at or above 4 kcal/mol?
Result: NO

Ask: Dear colleague, could you confirm whether N20L has folding stability dG at or above 4 kcal/mol?
Result: NO

Ask: Dear colleague, could you confirm whether S21C has folding stability dG at or above 4 kcal/mol?
Result: NO

Ask: Dear colleague, could you confirm whether K3Q has folding stability dG at or above 4 kcal/mol?
Result: YES

Ask: Dear colleague, could you confirm whether E16D has folding stability dG at or above 4 kcal/mol?
Result: NO

Ask: Dear colleague, could you confirm whether R65L has folding stability dG at or above 4 kcal/mol?
Result: NO

Ask: Dear colleague, could you confirm whether T62N has folding stability dG at or above 4 kcal/mol?
Result: NO

Ask: Dear colleague, could you confirm whether N33L has folding stability dG at or above 4 kcal/mol?
Result: NO

Ask: Dear colleague, could you confirm whether Y50G has folding stability dG at or above 4 kcal/mol?
Result: NO

Ask: Dear colleague, could you confirm whether A10D has folding stability dG at or above 4 kcal/mol?
Result: NO

Ask: Dear colleague, could you confirm whether K13R has folding stability dG at or above 4 kcal/mol?
Result: NO

Ask: Dear colleague, could you confirm whether R26P has folding stability dG at or above 4 kcal/mol?
Result: NO

Ask: Dear colleague, could you confirm whether K22M has folding stability dG at or above 4 kcal/mol?
Result: NO

Ask: Dear colleague, could you confirm whether Y50N has folding stability dG at or above 4 kcal/mol?
Result: NO

Ask: Dear colleague, could you confirm whether R68W has folding stability dG at or above 4 kcal/mol?
Result: NO

Ask: Dear colleague, could you confirm whether Q5D has folding stability dG at or above 4 kcal/mol?
Result: NO

Ask: Dear colleague, could you confirm whether K7D has folding stability dG at or above 4 kcal/mol?
Result: NO

Ask: Dear colleague, could you confirm whether K47D has folding stability dG at or above 4 kcal/mol?
Result: NO

Ask: Dear colleague, could you confirm whether R42E has folding stability dG at or above 4 kcal/mol?
Result: YES

Ask: Dear colleague, could you confirm whether E40M has folding stability dG at or above 4 kcal/mol?
Result: NO

Ask: Dear colleague, could you confirm whether R27W has folding stability dG at or above 4 kcal/mol?
Result: YES

Ask: Dear colleague, could you confirm whether S21L has folding stability dG at or above 4 kcal/mol?
Result: NO

Ask: Dear colleague, could you confirm whether Q29I has folding stability dG at or above 4 kcal/mol?
Result: YES

Ask: Dear colleague, could you confirm whether Y50I has folding stability dG at or above 4 kcal/mol?
Result: NO

Ask: Dear colleague, could you confirm whether T43K has folding stability dG at or above 4 kcal/mol?
Result: NO

Ask: Dear colleague, could you confirm whether I66H has folding stability dG at or above 4 kcal/mol?
Result: NO

Ask: Dear colleague, could you confirm whether S18G has folding stability dG at or above 4 kcal/mol?
Result: NO

Ask: Dear colleague, could you confirm whether E38Y has folding stability dG at or above 4 kcal/mol?
Result: YES

Ask: Dear colleague, could you confirm whether S18F has folding stability dG at or above 4 kcal/mol?
Result: YES

Ask: Dear colleague, could you confirm whether K64C has folding stability dG at or above 4 kcal/mol?
Result: NO

Ask: Dear colleague, could you confirm whether R36A has folding stability dG at or above 4 kcal/mol?
Result: NO

Ask: Dear colleague, could you confirm whether S21Y has folding stability dG at or above 4 kcal/mol?
Result: NO

Ask: Dear colleague, could you confirm whether L15H has folding stability dG at or above 4 kcal/mol?
Result: NO

Ask: Dear colleague, could you confirm whether N33H has folding stability dG at or above 4 kcal/mol?
Result: NO

Ask: Dear colleague, could you confirm whether R36F has folding stability dG at or above 4 kcal/mol?
Result: YES

Ask: Dear colleague, could you confirm whether E1A has folding stability dG at or above 4 kcal/mol?
Result: NO

Ask: Dear colleague, could you confirm whether Q17S has folding stability dG at or above 4 kcal/mol?
Result: NO

Ask: Dear colleague, could you confirm whether E55S has folding stability dG at or above 4 kcal/mol?
Result: NO

Ask: Dear colleague, could you confirm whether Q29M has folding stability dG at or above 4 kcal/mol?
Result: YES

Ask: Dear colleague, could you confirm whether T69V has folding stability dG at or above 4 kcal/mol?
Result: NO

Ask: Dear colleague, could you confirm whether R56I has folding stability dG at or above 4 kcal/mol?
Result: NO

Ask: Dear colleague, could you confirm whether K3G has folding stability dG at or above 4 kcal/mol?
Result: NO

Ref: the MegaScale stability set (Tsuboyama et al. 2023)
